target: JAK2/JAK2 homdimeric complex (Homo sapiens (Human)); experiment: GM-CSF Induced pSTAT5 in Human PBMC; settings: GM-CSF 5 ng/mL for 20 minutes, pSTAT5 by MSD, read-out: PBMC_GMCSF_pSTAT5 IC50
pIC50: −log10 of the molar value.
MEASUREMENT_TYPE: pIC50

Worked examples follow.
# MOLECULE, pIC50
measured = [
    ("[2H]C([2H])([2H])Oc1ncccc1Nc1cc(NC)n2ncc(C(=O)N[C@H]3CC[C@H](O)C3)c2n1", "< 4.30"),
    ("CNc1cc(Nc2cc(Cl)cn(C3CCN(C)CC3)c2=O)nc2c(C(=O)N[C@@H]3CC[C@H]3O)cnn12", "< 4.30"),
    ("CNc1cc(Nc2cc(Cl)cn([C@H]3CCCN(C)C3)c2=O)nc2c(C(=O)N[C@@H]3C[C@@H]3F)cnn12", "< 4.30"),
    ("CNc1cc(Nc2cccn(-c3cnn(CC4CCOCC4)c3)c2=O)nc2c(C(=O)N[C@H]3C[C@H]3F)cnn12", "< 4.90"),
    ("[2H]C([2H])([2H])Oc1ncccc1Nc1cc(NC)n2ncc(C(=O)N[C@@H]3CC[C@H]3O)c2n1", "< 4.90"),
]

Item CNc1cc(-c2cn(C(C)C)c3ncc(Cl)cc23)nc2c(C(N)=O)cnn12 has what recorded pIC50?
< 4.90

Item CNc1cc(Nc2cccn([C@H]3CCC[C@H](OC)C3)c2=O)nc2c(C(=O)NCC(C)(C)CO)cnn12 has what recorded pIC50?
< 4.30

Item CNc1cc(Nc2cccc(N3CCOCC3)n2)nc2c(C(=O)N[C@H]3C[C@H]3F)cnn12 has what recorded pIC50?
< 4.90

Item CNc1cc(Nc2cccn(-c3ocnc3C)c2=O)nc2c(C(=O)N[C@@H]3C[C@@H]3F)cnn12 has what recorded pIC50?
< 4.90

Item [2H]C([2H])([2H])Nc1cc(Nc2cccnc2OC)nc2c(C(=O)N[C@@H]3C[C@@H]3F)cnn12 (stereo in doubt) has what recorded pIC50?
< 4.30

Item CNc1cc(Nc2cc(Cl)cn(-c3cnn(C)c3F)c2=O)nc2c(C(=O)NC3CC3)cnn12 has what recorded pIC50?
< 4.90

Item CNc1cc(Nc2cccn([C@H]3CC[C@H](OC)CC3)c2=O)nc2c(C(=O)NC3CCC3)cnn12 has what recorded pIC50?
< 4.30

Item CNc1cc(Nc2cccn(-c3cc(C)nn3C)c2=O)nc2c(C(=O)NC3CCC3)cnn12 has what recorded pIC50?
< 4.90

Item CNc1cc(Nc2cccn(-c3ncc(C)s3)c2=O)nc2c(C(=O)N[C@@H]3CC[C@@H]3O)cnn12 [I-1073] has what recorded pIC50?
< 4.30

---

Catalogue of compounds with associated pKd
target: human TYK2 (JH2domain-pseudokinase) (Homo sapiens (Human)); test: TYK2 JH2 Domain Binding Assay (KINOMEscan)
Sequence (P29597 556-888): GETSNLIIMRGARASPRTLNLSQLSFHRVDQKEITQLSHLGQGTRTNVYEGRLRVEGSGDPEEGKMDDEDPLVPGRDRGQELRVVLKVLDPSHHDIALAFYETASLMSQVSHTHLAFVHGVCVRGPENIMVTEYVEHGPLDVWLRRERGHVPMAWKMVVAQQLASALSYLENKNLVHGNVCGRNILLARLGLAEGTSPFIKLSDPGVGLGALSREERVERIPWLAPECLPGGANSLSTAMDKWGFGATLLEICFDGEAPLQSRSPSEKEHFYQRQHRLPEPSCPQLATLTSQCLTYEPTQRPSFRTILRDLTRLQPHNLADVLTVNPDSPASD
pKd: −log10 of the molar value.

Worked examples follow.
# COMPOUND, TEST_SYSTEM, TEST_VALUE
data = [
    ("CNc1cc(Nc2cccn([C@H]3[C@@H]4COC[C@@H]43)c2=O)nc2c(C(=O)NC3CC3)cnn12", "human TYK2 (JH2domain-pseudokinase) (Homo sapiens (Human))", "> 9.70"),
    ("CNc1cc(Nc2cc3cccnc3n2C2CC2)nc2c(C(=O)N[C@@H]3CC[C@H]3OC)cnn12", "human TYK2 (JH2domain-pseudokinase) (Homo sapiens (Human))", "> 9.70"),
]

Item CNc1cc(Nc2cccn(-c3cccc(C)n3)c2=O)nc2c(C(=O)NC3CCC3)cnn12 has what recorded pKd?
> 9.70

Item CNc1cc(Nc2cccn(C3CCCCC3)c2=O)nc2c(C(=O)N[C@H]3COC[C@H]3O)cnn12 [I-1349] has what recorded pKd?
8.00 to 9.00

Item CNc1cc(-c2cn(C3CC3)c3ncccc23)nc2c(C(=O)N[C@H]3CC[C@H]3O)cnn12 has what recorded pKd?
> 9.70

Item CNc1cc(Nc2cccn(-c3ccc(C4CC4)nn3)c2=O)nc2c(C(=O)NC3CCC3)cnn12 has what recorded pKd?
> 9.70

Item CNc1cc(Nc2cccn(-c3cnn(C)c3F)c2=O)nc2c(C(=O)NC3CC3)cnn12 has what recorded pKd?
> 9.70

Item CNc1cc(-c2cn(C(C)C)c3ncccc23)nc2c(C(=O)N[C@H]3COC[C@H]3O)cnn12 (stereo in doubt) [I-764] has what recorded pKd?
> 9.70

Item CNc1cc(Nc2cccn(C3CCN(CCF)CC3)c2=O)nc2c(C(=O)N[C@H]3C[C@H]3F)cnn12 has what recorded pKd?
> 9.70

Item CNc1cc(Nc2cccn(CCOC3CC3)c2=O)nc2c(C(=O)N[C@@H]3CC[C@@H]3O)cnn12 [I-473] has what recorded pKd?
9.00 to 9.70

---

molecular target: human TYK2 (JH2domain-pseudokinase) (Homo sapiens (Human)); assay: TYK2 JH2 Domain Binding Assay (KINOMEscan)
MEASUREMENT_TYPE: Kd

Worked examples follow.
# MOLECULE, Kd
measured = [
    ("CNc1cc(Nc2cccc([C@@H]3CCCOC3)n2)nc2c(C(=O)N[C@H]3C[C@H]3F)cnn12 [I-562]", "< 0.2 nM"),
    ("CNc1cc(Nc2cc(Cl)cnc2OC(C)C)nc2c(C(=O)N[C@H]3C[C@H]3F)cnn12 [I-148]", "0.2 to 1 nM"),
    ("NC(=O)c1cnn2c(N)cc(Nc3cc(Cl)cnc3O[C@@H]3CCOC3)nc12 [I-85]", "1 to 10 nM"),
]

Item CNc1cc(-c2cn(CCN3CCOCC3)c3ncccc23)nc2c(C(=O)N[C@@H]3CC[C@@H]3O)cnn12 [I-779] has what recorded Kd?
0.2 to 1 nM

---

target: JAK2/JAK2 homdimeric complex (Homo sapiens (Human), UniProt O60674); experiment: GM-CSF Induced pSTAT5 in Human PBMC; conditions: GM-CSF 5 ng/mL for 20 minutes, pSTAT5 by MSD, read-out: PBMC_GMCSF_pSTAT5 IC50
Sequence (O60674 whole entry): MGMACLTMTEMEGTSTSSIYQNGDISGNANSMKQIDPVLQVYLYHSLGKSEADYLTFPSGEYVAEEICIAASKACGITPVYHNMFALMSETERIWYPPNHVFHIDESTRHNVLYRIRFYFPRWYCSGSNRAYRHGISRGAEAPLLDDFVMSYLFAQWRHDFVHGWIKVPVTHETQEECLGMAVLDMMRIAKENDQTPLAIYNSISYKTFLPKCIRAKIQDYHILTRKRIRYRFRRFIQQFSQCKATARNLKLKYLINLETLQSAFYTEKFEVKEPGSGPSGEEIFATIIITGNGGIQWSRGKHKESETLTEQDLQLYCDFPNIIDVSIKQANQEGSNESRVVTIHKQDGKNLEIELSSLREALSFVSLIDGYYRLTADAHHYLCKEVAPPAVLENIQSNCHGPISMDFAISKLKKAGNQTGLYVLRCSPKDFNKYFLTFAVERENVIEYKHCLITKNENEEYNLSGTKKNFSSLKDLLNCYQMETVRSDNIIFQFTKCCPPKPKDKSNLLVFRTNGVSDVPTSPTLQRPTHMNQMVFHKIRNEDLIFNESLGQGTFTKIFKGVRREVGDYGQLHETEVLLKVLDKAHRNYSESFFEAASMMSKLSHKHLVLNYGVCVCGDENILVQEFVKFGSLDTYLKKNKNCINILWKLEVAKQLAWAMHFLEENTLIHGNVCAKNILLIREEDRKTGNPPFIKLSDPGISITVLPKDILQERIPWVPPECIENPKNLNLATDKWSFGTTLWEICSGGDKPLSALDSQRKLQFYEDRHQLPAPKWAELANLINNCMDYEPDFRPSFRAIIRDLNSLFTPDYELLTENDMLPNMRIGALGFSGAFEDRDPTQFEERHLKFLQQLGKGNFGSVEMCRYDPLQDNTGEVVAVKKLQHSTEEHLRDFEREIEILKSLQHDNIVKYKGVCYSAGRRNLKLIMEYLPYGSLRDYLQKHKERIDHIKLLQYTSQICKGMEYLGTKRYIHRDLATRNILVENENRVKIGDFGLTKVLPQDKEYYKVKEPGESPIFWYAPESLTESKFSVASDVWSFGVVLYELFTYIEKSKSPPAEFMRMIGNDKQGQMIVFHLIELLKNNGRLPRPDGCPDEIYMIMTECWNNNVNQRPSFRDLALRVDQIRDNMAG
Sequence (P32927 17-897 partner): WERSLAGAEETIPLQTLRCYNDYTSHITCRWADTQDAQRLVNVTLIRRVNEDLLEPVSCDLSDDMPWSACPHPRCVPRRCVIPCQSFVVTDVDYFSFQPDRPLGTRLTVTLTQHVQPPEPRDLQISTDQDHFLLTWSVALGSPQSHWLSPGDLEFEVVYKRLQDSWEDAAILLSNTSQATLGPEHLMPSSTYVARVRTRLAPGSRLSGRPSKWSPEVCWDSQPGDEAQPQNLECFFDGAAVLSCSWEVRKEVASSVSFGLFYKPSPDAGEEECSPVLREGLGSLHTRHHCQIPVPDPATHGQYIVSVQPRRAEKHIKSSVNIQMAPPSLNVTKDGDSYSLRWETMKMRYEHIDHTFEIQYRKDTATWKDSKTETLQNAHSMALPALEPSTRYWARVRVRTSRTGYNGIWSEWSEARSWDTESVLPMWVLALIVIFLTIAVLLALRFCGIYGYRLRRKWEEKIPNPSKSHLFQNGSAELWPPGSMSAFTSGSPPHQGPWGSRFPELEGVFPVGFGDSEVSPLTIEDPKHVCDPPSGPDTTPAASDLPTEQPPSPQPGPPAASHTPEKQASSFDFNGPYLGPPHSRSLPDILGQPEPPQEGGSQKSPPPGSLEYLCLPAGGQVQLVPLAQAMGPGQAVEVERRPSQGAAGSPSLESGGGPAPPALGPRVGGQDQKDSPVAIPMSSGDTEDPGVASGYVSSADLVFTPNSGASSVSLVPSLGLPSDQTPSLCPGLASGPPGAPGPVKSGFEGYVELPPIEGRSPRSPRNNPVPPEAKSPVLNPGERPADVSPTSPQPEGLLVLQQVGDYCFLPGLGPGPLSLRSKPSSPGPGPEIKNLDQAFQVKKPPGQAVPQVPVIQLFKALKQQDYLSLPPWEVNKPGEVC
pIC50: −log10 of the molar value.
Catalogue of molecules with associated pIC50

# MOLECULE, pIC50
rows = [
    ("CNc1cc(Nc2cc(Cl)cn(-c3cnc(C(=O)N(C)C)cn3)c2=O)nc2c(C(=O)N[C@H]3C[C@H]3F)cnn12", "< 5.60"),
    ("CNc1cc(Nc2cccn(C3CCOCC3)c2=O)nc2c(C(=O)N[C@H]3CC[C@@H]3OC)cnn12", "< 4.30"),
    ("CNc1cc(Nc2cccn(-c3ccccn3)c2=O)nc2c(C(=O)N[C@H]3C[C@H]3F)cnn12", "< 4.90"),
]

Item CNc1cc(Nc2cccn([C@H]3CCC[C@@H](OC)C3)c2=O)nc2c(C(=O)N[C@@H]3CC[C@H]3O)cnn12 has what recorded pIC50?
< 4.30

Item CNc1cc(Nc2cc(Cl)cn(C3CCOCC3)c2=O)nc2c(C(=O)N[C@@H]3CC[C@H]3O)cnn12 has what recorded pIC50?
< 4.30

Item CNc1cc(Nc2cccn([C@H]3CC[C@](C)(OC)CC3)c2=O)nc2c(C(=O)N[C@@H]3CC[C@@H]3O)cnn12 [I-722] has what recorded pIC50?
< 4.90

Item CNc1cc(Nc2cccn([C@@H]3CCC[C@@H](OC)C3)c2=O)nc2c(C(=O)NC3CC3)cnn12 has what recorded pIC50?
< 4.30

---

Target: human TYK2 (JH2domain-pseudokinase) (Homo sapiens (Human))
Assay: TYK2 JH2 Domain Binding Assay (KINOMEscan)
Method: Binding constants for compounds of the present invention against the JH2 domain were determined by the following protocol for a KINOMEscan® assay (DiscoveRx). […] The TYK2 (JH2domain-pseudokinase) fusion protein was labeled with a chimeric double-stranded DNA tag containing the NFkB binding site (5′-[…]-3′) fused to an amplicon for qPCR readout, which was added directly to the expression extract (the final concentration of DNA-tag in the binding reaction is 0.1 nM). […]
pKd: −log10 of the molar value.
MEASUREMENT_TYPE: pKd

Worked examples follow.
# COMPOUND, TEST_SYSTEM, pKd
records = [
    ("CNc1cc(Nc2cccn([C@@H]3CCCC[C@@H]3OC)c2=O)nc2c(C(=O)N[C@H]3CC[C@@H]3OC)cnn12 [I-1037]", "human TYK2 (JH2domain-pseudokinase) (Homo sapiens (Human))", "9.00 to 9.70"),
    ("CNc1cc(Nc2cccc([C@H]3CCCOC3)n2)nc2c(C(=O)N[C@H]3COC[C@H]3O)cnn12 [I-774]", "human TYK2 (JH2domain-pseudokinase) (Homo sapiens (Human))", "8.00 to 9.00"),
]

Item CNc1cc(Nc2cccn(C3CCN(CC(F)F)CC3)c2=O)nc2c(C(=O)NC3CCC3)cnn12 [I-192] has what recorded pKd?
> 9.70

Item CNc1cc(Nc2cccn(C3CCCN(CCF)C3)c2=O)nc2c(C(=O)N[C@@H]3C[C@@H]3F)cnn12 (some centres unmarked) [I-849] has what recorded pKd?
> 9.70

Item CNc1cc(Nc2cccn([C@H]3CCC[C@@H](OC)C3)c2=O)nc2c(C(=O)N[C@@H]3CC[C@H]3O)cnn12 [I-1123] has what recorded pKd?
> 9.70

Item CNc1cc(Nc2cccn(-c3ccccn3)c2=O)nc2c(C(=O)NCC(C)CO)cnn12 (centres unmarked) [I-682] has what recorded pKd?
9.00 to 9.70

Item CNc1cc(Nc2cccc(N3CCCC3=O)n2)nc2c(C(=O)N[C@@H]3CC[C@@H]3O)cnn12 [I-679] has what recorded pKd?
> 9.70

Item CNc1cc(Nc2cccn(C3CCOC3)c2=O)nc2c(C(N)=O)cnn12 (centres unmarked) [I-108] has what recorded pKd?
9.00 to 9.70

Item CNc1cc(Nc2cc(Cl)cnc2O[C@@H]2CCOC2)nc2c(C(N)=O)cnn12 [I-84] has what recorded pKd?
9.00 to 9.70

Ref: patent US10508120B2
